tested on: SJSA-1 osteosarcoma cell line; assay: cells; details: Homo sapiens, SJSA-1, 96 h, read-out: IC50 cell growth inhibition
recorded-endpoint: IC50 (nM)
The reply should contain only the number, in nM.

Documented IC50 of CC(C)(C)C[C@H]1N[C@@H](C(=O)NCC[C@H](O)CO)[C@H](c2cccc(Cl)c2F)[C@@]12C(=O)Nc1cc(Cl)ccc12 [5a] : 150

---

tested on: SJSA-1 osteosarcoma cell line; test: cells; conditions: Homo sapiens, SJSA-1, 48 h, read-out: IC50 cell growth inhibition
recorded-endpoint: pIC50
To interpret pIC50, take it as minus log10 of a concentration measured in moles per litre.

CC(C)(C)C[C@H]1N[C@@H](C(=O)NCC[C@H](O)CO)[C@H](c2cccc(Cl)c2F)[C@@]12C(=O)Nc1cc(Cl)ccc12 [5a]
6.02

# context switch: different molecule, same pIC50
Memo: CC(C)(C)C[C@@H]1N[C@@H](C(=O)NCC[C@H](O)CO)[C@H](c2cccc(Cl)c2F)[C@]12C(=O)Nc1cc(Cl)ccc12 [5b] , reported pIC50: 6.20

---

# reported Ki; entries follow
molecular target: recombinant human His-tagged MDM2 protein (residues 1–118) (Homo sapiens, UniProt Q00987); assay: FP-based competitive protein binding assay
Lab book: enter the figure in nM, no units written.

CC(C)(C)C[C@H]1N[C@@H](C(=O)O)[C@H](c2cccc(Cl)c2F)[C@@]12C(=O)Nc1cc(Cl)ccc12 [8a]
67
CNC(=O)[C@@H]1N[C@H](CC(C)(C)C)[C@]2(C(=O)Nc3cc(Cl)ccc32)[C@H]1c1cccc(Cl)c1 [2a]
76.2

Briefly, Ki measured for CC(C)(C)C[C@@H]1N[C@@H](C(N)=O)[C@H](c2cccc(Cl)c2F)[C@]12C(=O)Nc1cc(Cl)ccc12 [9b] : 1.9
